The reported numbers originate from PubChem BioAssay AID1963446.

# System: 993429-296-R-J1-PDC complex spheroid growth, percent test/control
# method.description: Anticancer human tumor 993429-296-R-J1-PDC patient-derived uterine sarcoma cell line growth inhibition [Asc]
# condition.info: curve of first compound; second compound 0.03 µM
pIC50: −log10 of the molar value.
observed.property: pIC50

CNC(C)C(=O)NC1CN(S(=O)(=O)c2cccc(S(=O)(=O)N3CCC4CCC(C(=O)NC(c5ccccc5)c5ccccc5)N4C(=O)C(NC(=O)C(C)NC)C3)c2)CCC2CCC(C(=O)NC(c3ccccc3)c3ccccc3)N2C1=O (configuration not stated) + CCN1C(C(=O)NC23CCC(C(=O)O)(CC2)CC3)C(c2cccc(Cl)c2F)C2(C(=O)Nc3cc(Cl)ccc32)C12CCCCC2 | < 6.00

Continue with the molecule presented below.
Given the molecule CCN1CCN(Cc2ccc(Nc3ncc(F)c(-c4cc(F)c5nc(C)n(C(C)C)c5c4)n3)nc2)CC1 + CCN1C(C(=O)NC23CCC(C(=O)O)(CC2)CC3)C(c2cccc(Cl)c2F)C2(C(=O)Nc3cc(Cl)ccc32)C12CCCCC2 , what is its reported pIC50?
< 6.00

====

# Tested on: 993429-296-R-J1-PDC complex spheroid growth, percent test/control
# method.description: Anticancer human tumor 993429-296-R-J1-PDC cell line growth inhibition [Asc]; active = viability on the fitted dose curve at most 10% of control; inactive = the rest;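 further: spheroids exposed to compounds for seven days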
# condition.info: second compound 0.1 µM; first compound 0.0949 µM
Choose one outcome from this list and give only that: T = active, F = inactive

Cc1nc(N2CCC3(CC2)COC(C)C3N)c(CO)nc1Sc1ccnc(N)c1Cl (stereo unspecified) + CNC(C)C(=O)NC1CN(S(=O)(=O)c2cccc(S(=O)(=O)N3CCC4CCC(C(=O)NC(c5ccccc5)c5ccccc5)N4C(=O)C(NC(=O)C(C)NC)C3)c2)CCC2CCC(C(=O)NC(c3ccccc3)c3ccccc3)N2C1=O | F

For this compound, state the assay outcome: CCN1C(C(=O)NC23CCC(C(=O)O)(CC2)CC3)C(c2cccc(Cl)c2F)C2(C(=O)Nc3cc(Cl)ccc32)C12CCCCC2 (stereo unspecified) + CNC(C)C(=O)NC1CN(S(=O)(=O)c2cccc(S(=O)(=O)N3CCC4CCC(C(=O)NC(c5ccccc5)c5ccccc5)N4C(=O)C(NC(=O)C(C)NC)C3)c2)CCC2CCC(C(=O)NC(c3ccccc3)c3ccccc3)N2C1=O
F

For this compound, state the assay outcome: NC(=O)C(=Cn1cnc(-c2cc(C(F)(F)F)cc(C(F)(F)F)c2)n1)c1cncnc1 + CNC(C)C(=O)NC1CN(S(=O)(=O)c2cccc(S(=O)(=O)N3CCC4CCC(C(=O)NC(c5ccccc5)c5ccccc5)N4C(=O)C(NC(=O)C(C)NC)C3)c2)CCC2CCC(C(=O)NC(c3ccccc3)c3ccccc3)N2C1=O
F

For this compound, state the assay outcome: Cc1nc(N2CCC3(CC2)COC(C)C3N)c(CO)nc1Sc1ccnc(N)c1Cl (stereo unspecified) + Cc1c(S(C)(=O)=O)c(-c2cc(F)cc(N3CCN(c4ccc(NS(=O)(=O)c5ccc(NC(CCN6CCC(C(=O)OCCCP(=O)(O)O)CC6)CSc6ccccc6)c(S(=O)(=O)C(F)(F)F)c5)cc4)CC3)c2)c(-c2ccc(Cl)cc2)n1C(C)C
F

For this compound, state the assay outcome: NC(=O)C(=Cn1cnc(-c2cc(C(F)(F)F)cc(C(F)(F)F)c2)n1)c1cncnc1 + Cc1c(S(C)(=O)=O)c(-c2cc(F)cc(N3CCN(c4ccc(NS(=O)(=O)c5ccc(NC(CCN6CCC(C(=O)OCCCP(=O)(O)O)CC6)CSc6ccccc6)c(S(=O)(=O)C(F)(F)F)c5)cc4)CC3)c2)c(-c2ccc(Cl)cc2)n1C(C)C
T

For this compound, state the assay outcome: CCN1C(C(=O)NC23CCC(C(=O)O)(CC2)CC3)C(c2cccc(Cl)c2F)C2(C(=O)Nc3cc(Cl)ccc32)C12CCCCC2 (stereo unspecified) + Cc1c(S(C)(=O)=O)c(-c2cc(F)cc(N3CCN(c4ccc(NS(=O)(=O)c5ccc(NC(CCN6CCC(C(=O)OCCCP(=O)(O)O)CC6)CSc6ccccc6)c(S(=O)(=O)C(F)(F)F)c5)cc4)CC3)c2)c(-c2ccc(Cl)cc2)n1C(C)C
F
